# Target: human QC (Homo sapiens, UniProt Q16769)
# Construct: The cDNA of the mature QC starting with codon 38 was fused in frame with the plasmid encoded 6× histidine tag; 6xHis; also E. coli M15 (pQE-31)
# Sequence (Q16769 29-361): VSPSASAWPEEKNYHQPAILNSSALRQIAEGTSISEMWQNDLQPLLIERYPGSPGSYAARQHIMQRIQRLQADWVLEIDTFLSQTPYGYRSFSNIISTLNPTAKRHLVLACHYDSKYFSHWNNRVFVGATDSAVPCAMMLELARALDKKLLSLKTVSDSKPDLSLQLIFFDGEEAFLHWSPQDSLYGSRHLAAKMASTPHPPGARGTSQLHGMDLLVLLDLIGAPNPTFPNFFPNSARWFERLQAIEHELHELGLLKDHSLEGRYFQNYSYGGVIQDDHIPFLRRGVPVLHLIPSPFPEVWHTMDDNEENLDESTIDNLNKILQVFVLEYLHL
# Measurement protocol: QC inhibitor assay (fluorometric, H-Gln-AMC / H-Gln-βNA, pyroglutamyl aminopeptidase coupled)
Test readout: Ki (nM)
Use nM as the unit, but write only the number.

Worked cases, Ki given:
Challenge: Data request, read-out Ki, for S=C(NCCCn1ccnc1)NCc1ccc2c(c1)OCO2 [Example 47]
Response given: 6100

Challenge: Data request, read-out Ki, for N#CN=C(NCCCn1ccnc1)NCc1ccc2c(c1)OCO2 [Example 81]
Response given: 1530

Challenge: Data request, read-out Ki, for COc1ccc(NC(=S)NCCCn2ccnc2)cc1 [Example 11]
Response given: 700

Further cases:
Challenge: Data request, read-out Ki, for CCOc1ccc(NC(=S)NCCCn2ccnc2)cc1 [Example 27]
Response given: 890

---

# Measurement protocol: Plasma half-life
# Format: in vivo
# Measurement context: rat
Test readout: half-life

Challenge: Data request, read-out half-life, for COc1ccc(NC(=S)NCCCn2ccnc2)cc1OC.Cl
Response given: < 1 h

---

# Target: human QC (Homo sapiens)
# Construct: The cDNA of the mature QC starting with codon 38 was fused in frame with the plasmid encoded 6× histidine tag; 6xHis; made in house; host or cells: Pichia pastoris X33 (pPICZαB, secreted); also E. coli M15 (pQE-31)
# Measurement protocol: Continuous spectrophotometric QC assay (glutamate dehydrogenase coupled), substrate kinetics;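 also: initial rates read on a microplate reader at 30 °C, with enzyme activity quantified against an ammonia calibration curve under the same assay conditions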
# Assay type: biochemical
# Measurement context: Human QC
Peptide text beside a SMILES is read from it.
Bucketed by reported kcat, buckets being group 1: < 20 s⁻¹; group 2: ≥ 20 s⁻¹ and < 70 s⁻¹; group 3: ≥ 70 s⁻¹

Record excerpt, results attached:
Challenge: Please let me know in which category the item NC(=O)CC[C@H](N)C(N)=O belongs.
Response given: group 1

Challenge: Please let me know in which category the item C[C@H](NC(=O)[C@@H](N)CCC(N)=O)C(N)=O [H-Gln-Ala-NH2] (H-Gln-Ala-NH2) belongs.
Response given: group 2

Challenge: Please let me know in which category the item CC(C)(C)OC(=O)C(N)CCC(N)=O (stereo not drawn) belongs.
Response given: group 1

Challenge: Please let me know in which category the item NC(=O)CC[C@H](N)C(=O)N[C@@H](CCC(=O)O)C(=O)O [H-Gln-Glu-OH] (H-Gln-Glu-OH) belongs.
Response given: group 2

Further cases:
Challenge: Please let me know in which category the item C[C@H](NC(=O)[C@H](C)NC(=O)[C@@H](N)CCC(N)=O)C(N)=O [H-Gln-Ala-Ala-NH2] (H-Gln-Ala-Ala-NH2) belongs.
Response given: group 3

Challenge: Please let me know in which category the item C[C@H](NC(=O)[C@@H](N)CCC(N)=O)C(=O)O [H-Gln-Ala-OH] (H-Gln-Ala-OH) belongs.
Response given: group 2

Challenge: Please let me know in which category the item NC(=O)CC[C@H](NC(=O)[C@@H](N)CCC(N)=O)C(=O)O [H-Gln-Gln-OH] (H-Gln-Gln-OH) belongs.
Response given: group 2

Challenge: Please let me know in which category the item NC(=O)CC[C@H](N)C(=O)N[C@@H](Cc1ccc(O)cc1)C(=O)O [H-Gln-Tyr-OH] (H-Gln-Tyr-OH) belongs.
Response given: group 3
